tested.on: UniProt:P22607
Sequence (P22607 whole entry): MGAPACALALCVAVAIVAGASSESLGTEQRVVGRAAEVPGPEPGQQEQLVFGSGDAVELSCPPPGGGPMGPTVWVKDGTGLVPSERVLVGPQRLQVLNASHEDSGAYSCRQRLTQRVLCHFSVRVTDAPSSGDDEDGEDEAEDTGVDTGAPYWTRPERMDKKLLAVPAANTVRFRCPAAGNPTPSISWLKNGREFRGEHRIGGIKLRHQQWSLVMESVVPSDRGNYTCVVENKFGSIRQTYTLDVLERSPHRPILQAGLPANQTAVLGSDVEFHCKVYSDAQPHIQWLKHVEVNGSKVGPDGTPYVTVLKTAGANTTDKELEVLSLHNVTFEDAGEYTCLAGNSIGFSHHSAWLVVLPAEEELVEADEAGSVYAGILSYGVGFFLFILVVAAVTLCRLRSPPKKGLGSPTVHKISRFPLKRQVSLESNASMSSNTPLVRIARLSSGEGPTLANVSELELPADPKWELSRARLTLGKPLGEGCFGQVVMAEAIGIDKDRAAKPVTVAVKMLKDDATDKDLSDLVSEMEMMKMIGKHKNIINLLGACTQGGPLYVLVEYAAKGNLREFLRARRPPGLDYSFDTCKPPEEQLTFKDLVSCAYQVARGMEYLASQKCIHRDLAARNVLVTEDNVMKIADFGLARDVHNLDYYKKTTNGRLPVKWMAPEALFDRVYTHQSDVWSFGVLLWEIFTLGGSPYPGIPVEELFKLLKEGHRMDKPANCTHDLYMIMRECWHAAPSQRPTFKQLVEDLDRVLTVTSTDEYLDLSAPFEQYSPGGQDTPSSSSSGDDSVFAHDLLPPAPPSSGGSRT
readout.name: IC50 (nM)

- mol.smiles: "COc1cccc(S(=O)(=O)n2ccc3cnc(Nc4ccc(N5C[C@@H](C)N[C@@H](C)C5)cc4)nc32)c1"
  tested.on: "UniProt:P22607"
  readout.name: "IC50"
  uom: "nM"
  test.result: 29.6

----------
Overview of reported half-life at 50 min across a group of molecules:
assay.comment: in vitro
conditions.used: mouse, liver microsomes
Description: Metabolic stability in mouse liver microsomes assessed as half life pretreated for 5 mins followed by NADPH addition and measured for 45 mins by LC/MS analysis

- mol.smiles: "COc1cccc(S(=O)(=O)n2ccc3cnc(Nc4ccc(N5C[C@@H]6C[C@H]5CN6C)cc4)nc32)c1"
  half-life at 50 min / min: 13.1
- mol.smiles: "COc1ccc(OC)c(S(=O)(=O)n2ccc3cnc(Nc4ccc(N5CCN(C)CC5)cc4)nc32)c1"
  half-life at 50 min / min: 4.9
- mol.smiles: "CN1CCN(c2ccc(Nc3ncc4ccn(S(=O)(=O)c5cc(F)cc(F)c5)c4n3)cc2)CC1"
  half-life at 50 min / min: 4.4
- mol.smiles: "COc1cccc(S(=O)(=O)n2ccc3cnc(Nc4ccc(N5CCN(C)CC5)cc4)nc32)c1"
  half-life at 50 min / min: 4.2

This collection of values is drawn from ChEMBL document CHEMBL5236620.
